- Tested on: 266295-075-R-J1-PDC spheroid viability
- test: Anticancer human tumor 266295-075-R-J1-PDC patient-derived head and neck squamous carcinoma cell line growth inhibition [POLQ]
- condition_info: second compound 0.316 µM; first compound 0.0316 µM; active compounds read low; spheroids with HUVEC and MSC
Exercise: state measured viability, T/C for each of the compounds provided.
Just the number in %, nothing appended.

Supply viability, T/C value. Item: C#Cc1c(F)ccc2cc(O)cc(-c3ncc4c(N5CC6CCC(C5)N6)nc(OCC56CCCN5CC(F)C6)nc4c3F)c12 (stereo not given) + Nc1ccc(C#CCN(C(=O)Cc2ncc(C(F)(F)F)cc2C(F)(F)F)c2ccc(F)cc2)nn1
89.2

Supply viability, T/C value. Item: C=CCn1c(=O)c2cnc(Nc3ccc(N4CCN(C)CC4)cc3)nc2n1-c1cccc(C(C)(C)O)n1 + COC1C(OC(N)=O)C(O)C(Oc2ccc3c(O)c(NC(=O)c4ccc(O)c(CC=C(C)C)c4)c(=O)oc3c2C)OC1(C)C
95

Supply viability, T/C value. Item: O=C(Nc1ccc(O)c(NS(=O)(=O)c2ccc(F)cc2)c1)c1ccc(-c2ccccc2)cc1 + COC1C(OC(N)=O)C(O)C(Oc2ccc3c(O)c(NC(=O)c4ccc(O)c(CC=C(C)C)c4)c(=O)oc3c2C)OC1(C)C
101

Supply viability, T/C value. Item: CC1COCCN1c1cc(C2(O)CC3CCC(C2)O3)c2cnn(-c3ccn[nH]3)c2n1 (stereo not given) + COC1C(OC(N)=O)C(O)C(Oc2ccc3c(O)c(NC(=O)c4ccc(O)c(CC=C(C)C)c4)c(=O)oc3c2C)OC1(C)C
103

Supply viability, T/C value. Item: O=c1[nH]cc(F)c(=O)[nH]1 + Cc1cccc(N(C)C(=O)C2C(O)CCN2c2nc(C)cc(C(F)(F)F)c2C#N)c1
77.2

---

- Tested on: 266295-075-R-J1-PDC spheroid viability
- test: Anticancer human tumor 266295-075-R-J1-PDC cell line growth inhibition [POLQ];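 further: spheroids exposed to compounds for seven days before readout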
- condition_info: second compound 0.0316 µM; first compound 0.316 µM; active compounds read low; spheroids with HUVEC and MSC
Exercise: state measured viability, T/C for each of the compounds provided.
Just the number in %, nothing appended.

Supply viability, T/C value. Item: C#Cc1c(F)ccc2cc(O)cc(-c3ncc4c(N5CC6CCC(C5)N6)nc(OCC56CCCN5CC(F)C6)nc4c3F)c12 (stereo not given) + Cc1cccc(N(C)C(=O)C2C(O)CCN2c2nc(C)cc(C(F)(F)F)c2C#N)c1
82.8

Supply viability, T/C value. Item: CC1COCCN1c1cc(C2(O)CC3CCC(C2)O3)c2cnn(-c3ccn[nH]3)c2n1 (stereo not given) + Nc1ccc(C#CCN(C(=O)Cc2ncc(C(F)(F)F)cc2C(F)(F)F)c2ccc(F)cc2)nn1
67.6

Supply viability, T/C value. Item: COc1ccc([C@@H](O)c2cc(-c3ncnc4cc(N5CCOCC5)ccc34)c(F)cc2Cl)nn1 + COC1C(OC(N)=O)C(O)C(Oc2ccc3c(O)c(NC(=O)c4ccc(O)c(CC=C(C)C)c4)c(=O)oc3c2C)OC1(C)C
76.6

Supply viability, T/C value. Item: C#Cc1c(F)ccc2cc(O)cc(-c3ncc4c(N5CC6CCC(C5)N6)nc(OCC56CCCN5CC(F)C6)nc4c3F)c12 (stereo not given) + COC1C(OC(N)=O)C(O)C(Oc2ccc3c(O)c(NC(=O)c4ccc(O)c(CC=C(C)C)c4)c(=O)oc3c2C)OC1(C)C
69.6

Supply viability, T/C value. Item: C#Cc1c(F)ccc2cc(O)cc(-c3ncc4c(N5CC6CCC(C5)N6)nc(OCC56CCCN5CC(F)C6)nc4c3F)c12 (stereo not given) + Nc1ccc(C#CCN(C(=O)Cc2ncc(C(F)(F)F)cc2C(F)(F)F)c2ccc(F)cc2)nn1
82.9
